- measurement_notes: Drug distribution in female BALB/c mouse heart measured after 24 hrs
- Type: ADME, tissue-based
- condition_info: in vivo
measurement_name: Drug uptake (nmol/mg)
Please respond with the number in nmol/mg and leave the unit unwritten.

Give its Drug uptake value. Item: `O=C(O)c1cccc(C(=O)Nc2c(C(c3ccc(F)cc3)c3ccc(F)cc3)cc(Cl)cc2C(c2ccc(F)cc2)c2ccc(F)cc2)c1`
7.7

----------
- measurement_notes: Drug distribution in female BALB/c mouse lung measured after 24 hrs
- Format: ADME, tissue-based
- condition_info: in vivo
measurement_name: Drug uptake (nmol/mg)
Write the number in nmol/mg without appending the unit.

Bench note: what Drug uptake did `O=C(O)c1cccc(C(=O)Nc2c(C(c3ccc(F)cc3)c3ccc(F)cc3)cc(Cl)cc2C(c2ccc(F)cc2)c2ccc(F)cc2)c1` show?
9.91

----------
Listed next: entries and their corresponding MIC.
- Test system: Staphylococcus aureus
- measurement_notes: Antibacterial activity against methicillin-resistant Staphylococcus aureus NRS 100 assessed as reduction in bacterial growth measured after 18 to 24 hrs by broth microdilution method
- Type: functional
- condition_info: time 18-24 hrs
Give your result in µg/mL as a bare value.

Please review the entries below; each comes with its answer.
smiles: O=C(O)c1cccc(C(=O)Nc2c(C(c3ccccc3)c3ccccc3)cc(Cl)cc2C(c2ccccc2)c2ccccc2)c1
measurement_name: MIC
measurement: 4
//
smiles: O=C(O)c1cccc(C(=O)Nc2c(C(c3ccc(F)cc3)c3ccc(F)cc3)cc(Cl)cc2C(c2ccc(F)cc2)c2ccc(F)cc2)c1
measurement_name: MIC
measurement: 2

Now consider a different molecule.
Name the reported MIC value associated with the molecule `CC(C)(C)c1cc(C(c2ccccc2)c2ccccc2)c(NC(=O)c2cccc(C(=O)O)c2)c(C(c2ccccc2)c2ccccc2)c1`
4

----------
- measurement_notes: Drug distribution in female BALB/c mouse liver measured after 24 hrs
- Format: ADME, tissue-based
- condition_info: in vivo
measurement_name: Drug uptake (nmol/mg)
Express it in nmol/mg; write the number only.

Need Drug uptake of `O=C(O)c1cccc(C(=O)Nc2c(C(c3ccc(F)cc3)c3ccc(F)cc3)cc(Cl)cc2C(c2ccc(F)cc2)c2ccc(F)cc2)c1` , thanks.
3.92

----------
- System: Staphylococcus aureus
- measurement_notes: Inhibition of biofilm in Staphylococcus aureus ATCC 29213 at 0.5 times MIC measured after 12 hrs by crystal violet staining based analysis relative to control
- Type: functional
We begin with a simple list: items and their reported inhibition (INH).

smiles: CC(C)(C)c1cc(C(c2ccccc2)c2ccccc2)c(NC(=O)c2cccc(C(=O)O)c2)c(C(c2ccccc2)c2ccccc2)c1
inhibition (INH): >50%
//
smiles: O=C(O)c1cccc(C(=O)Nc2c(C(c3ccccc3)c3ccccc3)cc(Cl)cc2C(c2ccccc2)c2ccccc2)c1
inhibition (INH): >50%
//
smiles: CC(C)(C)c1cc(C(c2ccc(F)cc2)c2ccc(F)cc2)c(NC(=O)c2cccc(C(=O)O)c2)c(C(c2ccc(F)cc2)c2ccc(F)cc2)c1
inhibition (INH): >50%

Turning now to a further record.
Need inhibition (INH) of `O=C(O)c1cccc(C(=O)Nc2c(C(c3ccc(F)cc3)c3ccc(F)cc3)cc(Cl)cc2C(c2ccc(F)cc2)c2ccc(F)cc2)c1` , thanks.
>50%

----------
- Test system: Staphylococcus aureus
- measurement_notes: Antibacterial activity against methicillin-resistant Staphylococcus aureus NRS 100 assessed as reduction in bacterial growth measured after 18 to 24 hrs by broth microdilution method
- Type: functional
- condition_info: time 18-24 hrs
measurement_name: MIC (µg/mL)
Please state the figure in µg/mL; there is no need to write the unit.

molecule: CC(C)(C)c1cc(C(c2ccc(F)cc2)c2ccc(F)cc2)c(NC(=O)c2cccc(C(=O)O)c2)c(C(c2ccc(F)cc2)c2ccc(F)cc2)c1
unit_symbol: µg/mL
MIC: 2

# input for lookup
What value of MIC on Staphylococcus aureus does C[C@H]1COc2c(N3CCN(C)CC3)c(F)cc3c(=O)c(C(=O)O)cn1c23 [LEVOFLOXACIN ANHYDROUS] have?
0.25
